# Assay target: BCR-ABL^T315I (Homo sapiens, UniProt P00519, T315I)
# Construct: purchased Reaction Biology Corporation (RBC, Malvern, PA, USA)
# Experiment description: In vitro kinase screening (RBC), BCR-ABL^T315I
# Type: biochemical
# Test settings: 10-dose IC50 mode, 3-fold serial dilution, 10 μM ATP
Please go through the items and note down their pIC50.
Value format note: pIC50 is -log10 of concentration (mol/L); just state the number.

Answer with reported pIC50 of COc1ccccc1-c1ccc2nc(NC(=O)Nc3ccc(CN4CCOCC4)c(C(F)(F)F)c3)sc2c1 [Compound 2f]
6.65

Quote pIC50 reported for COc1ccccc1-c1ccc2nc(NC(=O)Nc3ccc(N4CCOCC4)cc3)sc2c1 [Compound 2c] please.
8.09

Name the recorded pIC50 of the item COc1ccccc1-c1ccc2nc(NC(=O)Nc3cc(C(F)(F)F)cc(C(F)(F)F)c3)sc2c1 [Compound 2e] in your answer.
5.02

* * *

# Assay target: BCR-ABL^WT (Homo sapiens, UniProt P00519)
# Experiment description: In vitro kinase screening (RBC), BCR-ABL^WT
# Assay type: biochemical
# Test settings: 10-dose IC50 mode, 3-fold serial dilution, 10 μM ATP
Observed property: IC50 (µM)
The response must be a number in µM with no trailing unit.

Please look at this molecule and report its IC50: COc1ccccc1-c1ccc2nc(NC(=O)Nc3ccc(N4CCN(C)CC4)cc3)sc2c1 [Compound 2a]
0.0015

Provide one value: measured IC50 of COc1ccccc1-c1ccc2nc(NC(=O)Nc3ccc(CN4CCOCC4)c(C(F)(F)F)c3)sc2c1 [Compound 2f]
0.0746

Provide only the value of recorded IC50 for COc1ccccc1-c1ccc2nc(NC(=O)Nc3ccc(N4CCOCC4)cc3)sc2c1 [Compound 2c]
0.00216

Please report the measured IC50 for COc1ccccc1-c1ccc2nc(NC(=O)Nc3cc(C(F)(F)F)cc(C(F)(F)F)c3)sc2c1 [Compound 2e]
4.09

* * *

# Test system: L132 normal cell
# Experiment description: MTT antiproliferative assay
# Test settings: Homo sapiens, L132, 72 h, read-out: GI50 L132
Would you mind telling me the reported GI50 of each entry?

Identify the reported GI50 for the following entry. COc1ccccc1-c1ccc2nc(NC(=O)Nc3cc(C(F)(F)F)cc(C(F)(F)F)c3)sc2c1
35.1 µM

Find the measured GI50 of COc1ccccc1-c1ccc2nc(NC(=O)Nc3ccc(N4CCN(C)CC4)cc3)sc2c1 and report it.
26.8 µM

Consider the compound Cc1ccc(NC(=O)c2ccc(CN3CCN(C)CC3)cc2)cc1Nc1nccc(-c2cccnc2)n1 and give its recorded GI50.
> 10 µM

For COc1ccccc1-c1ccc2nc(NC(=O)Nc3ccc(N4CCOCC4)cc3)sc2c1 , write its GI50.
26.1 µM

Give the reported value of GI50 for this record: CCN1CCN(c2ccc(NC(=O)Nc3nc4ccc(-c5ccccc5OC)cc4s3)cc2)CC1
17.9 µM

The measurements presented in this section are drawn from paper PMC10026764.
